Molecular target: HLA-B*48:01
Assay: IEDB peptide-MHC binding, purified MHC/direct/fluorescence; filed as Kd, often an IC50 or EC50 that approximates it; bounds were set here for any values at or beyond the usual limits of such assays
Settings: source organism: Camelpox virus CMS
MEASURED ENDPOINT: Kd

Form field Kd, entry `RVFDKADGK` : ≥ 20 µM

* * *

Molecular target: HLA-A*11:01
Test: IEDB peptide-MHC binding, purified MHC/competitive/fluorescence; bounds were set here for any values at or beyond the usual limits of such assays
Conditions: source organism: Vaccinia virus
MEASURED ENDPOINT: IC50 (µM)
Write the value in µM as a bare number.

With HLA-A*11:01 as the test system, `TTQSIHENK` showed IC50 of 6.04

* * *

Molecular target: HLA-A*02:19
Assay: IEDB peptide-MHC binding, purified MHC/competitive/fluorescence; filed as Kd, often an IC50 or EC50 that approximates it; bounds were set here for any values at or beyond the usual limits of such assays
Conditions: source organism: Salmonella enterica subsp. enterica serovar Typhi
pKd: −log10 of the molar value.
MEASURED ENDPOINT: pKd

Per the record, `HVTQHWPQL` has pKd of ≤ 4.70

* * *

Biological target: HLA-B*40:01
Test: IEDB peptide-MHC binding, purified MHC/direct/fluorescence; filed as Kd, often an IC50 or EC50 that approximates it; bounds were set here for any values at or beyond the usual limits of such assays
Details: source organism: Pseudomonas aeruginosa UCBPP-PA14
pKd: −log10 of the molar value.
MEASURED ENDPOINT: pKd

For `ASDDLEHWQ` the sequence record lists pKd as ≤ 4.70

* * *

Molecular target: HLA-B*48:01
Test: IEDB peptide-MHC binding, purified MHC/direct/fluorescence; filed as Kd, often an IC50 or EC50 that approximates it; bounds were set here for any values at or beyond the usual limits of such assays
Conditions: source organism: Isla Vista hantavirus
pKd: −log10 of the molar value.
MEASURED ENDPOINT: pKd

Please fill in: pKd reported for `SSLRYGNVL` = ≤ 4.70

* * *

Biological target: HLA-A*24:03
Test: IEDB peptide-MHC binding, purified MHC/direct/fluorescence; filed as Kd, often an IC50 or EC50 that approximates it; bounds were set here for any values at or beyond the usual limits of such assays
Conditions: source organism: Rickettsia sibirica 246
pKd: −log10 of the molar value.
MEASURED ENDPOINT: pKd

pKd for `SVANIDRIK` is ≤ 4.70

* * *

Target: HLA-A*24:03
Test: IEDB peptide-MHC binding, purified MHC/competitive/fluorescence; filed as Kd, often an IC50 or EC50 that approximates it; bounds were set here for any values at or beyond the usual limits of such assays
Conditions: source organism: Entamoeba histolytica HM-1:IMSS
pKd: −log10 of the molar value.
MEASURED ENDPOINT: pKd

Recorded pKd (sequence `KTFEWGVFY` ): ≤ 4.70

* * *

Target: HLA-A*68:01
Experiment: IEDB peptide-MHC binding, purified MHC/competitive/radioactivity; filed as Kd, often an IC50 or EC50 that approximates it; bounds were set here for any values at or beyond the usual limits of such assays
Conditions: source organism: Lassa virus Josiah
For each record, write down the corresponding Kd.
Report the figure in µM without appending any unit label.

Reported Kd of `TCQGSDDIR` : 14.5

Reported Kd ( `FCNLSDAHK` ) = 1.05

* * *

Target: HLA-A*26:01
Experiment: IEDB peptide-MHC binding, purified MHC/competitive/radioactivity; filed as Kd, often an IC50 or EC50 that approximates it; bounds were set here for any values at or beyond the usual limits of such assays
Details: source organism: Mammarenavirus lassaense
MEASURED ENDPOINT: Kd (µM)
Entry rule: numbers only, all in µM.

Per the record, `LIDGRTSFY` has Kd of 14.4

* * *

Target: HLA-B*51:01
Test: IEDB peptide-MHC binding, purified MHC/direct/fluorescence; filed as Kd, often an IC50 or EC50 that approximates it; bounds were set here for any values at or beyond the usual limits of such assays
Settings: source organism: Rickettsia conorii
pKd: −log10 of the molar value.
MEASURED ENDPOINT: pKd

Entry `FADSDNIAM` : pKd on HLA-B*51:01 = ≤ 4.70

* * *

Biological target: HLA-A*26:01
Test: IEDB peptide-MHC binding, purified MHC/competitive/fluorescence; filed as Kd, often an IC50 or EC50 that approximates it; bounds were set here for any values at or beyond the usual limits of such assays
Settings: source organism: Escherichia coli
MEASURED ENDPOINT: pKd
Interpret pKd as the negative base-10 log of the concentration measured in mol/L.

So, `AAPLMQSLY` ? Its pKd was 5.88

* * *

For each entry below, report its Kd value.
Target: HLA-B*18:01
Assay: IEDB peptide-MHC binding, purified MHC/competitive/fluorescence; filed as Kd, often an IC50 or EC50 that approximates it; bounds were set here for any values at or beyond the usual limits of such assays
Conditions: source organism: Escherichia coli 536

Documented Kd of `KLYPNVDFY` : ≥ 20 µM

Entry `RVGIYFGMK` , Kd reported as ≥ 20 µM

* * *

Biological target: HLA-B*27:05
Assay: IEDB peptide-MHC binding, purified MHC/direct/fluorescence; filed as Kd, often an IC50 or EC50 that approximates it; bounds were set here for any values at or beyond the usual limits of such assays
Settings: source organism: Cryptosporidium parvum
MEASURED ENDPOINT: Kd

The value of Kd measured for the sequence `KHNSAESAK` turned out to be ≥ 20 µM

* * *

Target: HLA-A*01:01
Experiment: IEDB peptide-MHC binding, purified MHC/competitive/radioactivity; filed as Kd, often an IC50 or EC50 that approximates it; bounds were set here for any values at or beyond the usual limits of such assays
Settings: source organism: Mammarenavirus whitewaterense
pKd: −log10 of the molar value.
MEASURED ENDPOINT: pKd

Lookup result for `WDIKDPSLL` ; measured pKd: ≤ 4.37

* * *

For each entry below, report its pKd value.
Target: HLA-A*23:01
Test: IEDB peptide-MHC binding, purified MHC/competitive/radioactivity; filed as Kd, often an IC50 or EC50 that approximates it; bounds were set here for any values at or beyond the usual limits of such assays
Settings: source organism: Dengue virus 1 Brazil/97-11/1997
Lab note: report pKd as minus log10 of the concentration in molar units, number only.

Quick note, pKd for `YWVSCGTGNI` landed at 6.78

Record `CYSQVNPLTL` . Reported pKd: 6.72

* * *

Target: HLA-A*02:19
Assay: IEDB peptide-MHC binding, purified MHC/direct/fluorescence; filed as Kd, often an IC50 or EC50 that approximates it; bounds were set here for any values at or beyond the usual limits of such assays
Details: source organism: Rickettsia sibirica 246
pKd: −log10 of the molar value.
MEASURED ENDPOINT: pKd

pKd reported for this sequence `SVANIDRIK` : ≤ 4.70

* * *

Target: HLA-A*02:11
Experiment: IEDB peptide-MHC binding, purified MHC/competitive/fluorescence; filed as Kd, often an IC50 or EC50 that approximates it; bounds were set here for any values at or beyond the usual limits of such assays
Settings: source organism: Vibrio cholerae O395
MEASURED ENDPOINT: Kd

Entry `RVHFHRFMY` — recorded Kd = ≥ 20 µM

* * *

Target: HLA-A*02:01
Test: IEDB peptide-MHC binding, purified MHC/competitive/radioactivity; filed as Kd, often an IC50 or EC50 that approximates it; bounds were set here for any values at or beyond the usual limits of such assays
Conditions: source organism: Triticum aestivum
MEASURED ENDPOINT: Kd (nM)
Quick reminder: number only, in nM, skip the unit.

Kd in this record for `SQCQAIHNV` : 972

* * *

Answer each item with its documented pKd.
Biological target: HLA-A*11:01
Assay: IEDB peptide-MHC binding, purified MHC/competitive/radioactivity; filed as Kd, often an IC50 or EC50 that approximates it; bounds were set here for any values at or beyond the usual limits of such assays
Settings: source organism: Dengue virus 2 Jamaica/1409/1983
On this scale, pKd is minus log10 of a concentration expressed in M (mol/L).

Memo: `AVQTKPGLFK` , reported pKd: 7.42

Lab note: measured pKd of `KSEFQIYKK` was 6.61

* * *

Target: HLA-B*15:01
Assay: IEDB peptide-MHC binding, purified MHC/competitive/fluorescence; bounds were set here for any values at or beyond the usual limits of such assays
Conditions: source organism: Zaire ebolavirus
MEASURED ENDPOINT: log10 of IC50 (log10 of the value in µM)
# log10 transformed; quantity=IC50; unit=µM

Memo: `LMHNQDGLI` , reported log10 of IC50: 1.83

What the record says about `FLSFASLFL` : log10 of IC50 is 0.94

Record summary for `AIGLAWIPY` : reported log10 of IC50 = 0.16

Value of log10 of IC50 reported for the sequence `HMMKDEPVV` is 1.67

sequence `GQQFYWPVM` , log10 of IC50 observed: 0.18
